Molecular target: Albumin (Homo sapiens, UniProt P02768)
Sequence (P02768 whole entry): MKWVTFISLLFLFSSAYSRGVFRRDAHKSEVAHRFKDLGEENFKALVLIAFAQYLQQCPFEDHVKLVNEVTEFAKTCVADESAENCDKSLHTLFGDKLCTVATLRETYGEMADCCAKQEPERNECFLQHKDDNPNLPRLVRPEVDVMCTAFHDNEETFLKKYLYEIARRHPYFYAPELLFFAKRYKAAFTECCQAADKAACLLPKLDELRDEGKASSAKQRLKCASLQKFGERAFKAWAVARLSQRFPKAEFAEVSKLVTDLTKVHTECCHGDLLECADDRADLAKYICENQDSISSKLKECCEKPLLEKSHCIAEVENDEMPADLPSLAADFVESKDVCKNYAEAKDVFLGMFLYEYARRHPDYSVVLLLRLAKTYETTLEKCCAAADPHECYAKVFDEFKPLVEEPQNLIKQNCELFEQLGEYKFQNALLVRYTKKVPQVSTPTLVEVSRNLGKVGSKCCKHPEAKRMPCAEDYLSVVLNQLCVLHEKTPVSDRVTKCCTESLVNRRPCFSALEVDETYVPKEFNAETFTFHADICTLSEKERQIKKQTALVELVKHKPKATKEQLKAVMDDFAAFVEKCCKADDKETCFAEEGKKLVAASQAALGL
Test: Ability to bind to human serum albumin (HSA)
Items are presented alongside their recorded Log B/F.

Compound	Log B/F
C[C@H]1O[C@@H](O[C@H]2[C@@H](O)C[C@H](O[C@H]3[C@@H](O)C[C@H](O[C@H]4CC[C@@]5(C)[C@H](CC[C@@H]6[C@@H]5CC[C@]5(C)[C@@H](C7=CC(=O)OC7)CC[C@]65O)C4)O[C@@H]3C)O[C@@H]2C)C[C@H](O)[C@@H]1O	3.222
O=C(O)[C@H]1O[C@@H](O)[C@H](O)[C@@H](O)[C@@H]1O [GLUCURONATE]	-2
CCC(c1ccccc1)c1c(O)c2ccccc2oc1=O (stereo not given)	2.128
CCCNC(C)C(=O)Nc1c(C)csc1C(=O)OC (stereo not given)	-0.281
CCC1(c2ccccc2)C(=O)NC(=O)NC1=O	0.11

---

Assay: Tested for the dissociation constant of the compound
Format: ADME
Endpoint name: pKa

>>> df
                                   compound  endpoint_name  readout_value
0  CCC(c1ccccc1)c1c(O)c2ccccc2oc1=O (stereo not given) [PHENPROCOUMON]            pKa              5
1  CCCNC(C)C(=O)Nc1c(C)csc1C(=O)OC (stereo not given) [ARTICAINE]            pKa            7.8
2  O=C(O)[C@H]1O[C@@H](O)[C@H](O)[C@@H](O)[C@@H]1O [GLUCURONATE]            pKa            3.2
3  COc1ccc(CCN(C)CCCC(C#N)(c2ccc(OC)c(OC)c2)C(C)C)cc1OC (stereo not given)            pKa            9.2
4  CCC1(c2ccccc2)C(=O)NC(=O)NC1=O [PHENOBARBITAL]            pKa            7.5

---

Test: Partition coefficient (logP)
Assay type: physicochemical
Conditions: octanol/water; read-out: logP
Mark Fulfilled only when logP stays strictly below 2. Values equal to the cut-off are Not fulfilled.

Molecule	Classification
COCCc1ccc(OCC(O)CNC(C)C)cc1 (centres undefined) [METOPROLOL]	Not fulfilled
C=CCc1ccccc1OCC(O)CNC(C)C (centres undefined) [ALPRENOLOL]	Not fulfilled
O=C1CCC(c2ccccc2)(C2CCN(Cc3ccccc3)CC2)C(=O)N1 (centres undefined) [BENZETIMIDE]	Not fulfilled
CCC1(c2ccccc2)C(=O)NC(=O)NC1=O [PHENOBARBITAL]	Fulfilled
C[C@@H]1C[C@H]2[C@@H]3CCC4=CC(=O)C=C[C@]4(C)[C@@]3(F)[C@@H](O)C[C@]2(C)[C@@]1(O)C(=O)CO [DEXAMETHASONE]	Fulfilled
CCC(c1ccccc1)c1c(O)c2ccccc2oc1=O (centres undefined) [PHENPROCOUMON]	Not fulfilled
O=C(O)[C@H]1O[C@@H](O)[C@H](O)[C@@H](O)[C@@H]1O [GLUCURONATE]	Fulfilled
C[C@H]1O[C@@H](O[C@H]2[C@@H](O)C[C@H](O[C@H]3[C@@H](O)C[C@H](O[C@H]4CC[C@@]5(C)[C@H](CC[C@@H]6[C@@H]5CC[C@]5(C)[C@@H](C7=CC(=O)OC7)CC[C@]65O)C4)O[C@@H]3C)O[C@@H]2C)C[C@H](O)[C@@H]1O [DIGITOXIN]	Fulfilled
